# measured-target: human MET kinase Y1230C (Homo sapiens, UniProt P08581, Y1230C)
# Construct: GST-tagged recombinant human MET kinase domain
# Sequence (P08581 1078-1345 Y1230C): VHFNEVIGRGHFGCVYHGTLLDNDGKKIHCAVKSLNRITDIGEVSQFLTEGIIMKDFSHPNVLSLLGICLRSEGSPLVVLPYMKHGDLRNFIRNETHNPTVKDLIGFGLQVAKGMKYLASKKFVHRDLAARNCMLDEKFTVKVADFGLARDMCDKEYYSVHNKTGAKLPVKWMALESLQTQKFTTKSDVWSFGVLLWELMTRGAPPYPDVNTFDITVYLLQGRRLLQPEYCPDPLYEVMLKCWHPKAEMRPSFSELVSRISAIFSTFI
# protocol-notes: c-Met Enzyme Assay, Y1230C mutant
# measurement-context: averaged IC50; Y1230C 2 nM; 60-minute incubation at 22° C.; read-out: Y1230 C IC50
pIC50: −log10 of the molar value.
endpoint-label: pIC50

{"smiles-entry": "COc1cc2nccc(Oc3ccc(NC(=O)c4cn(C(C)C)cc(-c5ccc(F)cc5C)c4=O)nc3)c2cc1OC", "pIC50": 8.70}

a: COc1cc2ncc(C#N)c(Oc3ccc(NC(=O)c4cn(C(C)C)cc(-c5ccc(F)cc5)c4=O)nc3)c2cc1OC
b: COc1cc2nc(C)cc(Oc3ccc(NC(=O)c4cn(C(C)C)cc(-c5ccc(F)cc5)c4=O)nc3)c2cc1OC
Query: Please let me know which one, a or b , has a lower measured pIC50 value. Write down the label of the entry you select.
Response: b

1: CCOc1ccc2c(Oc3ccc(NC(=O)c4cn(C(C)C)cc(-c5ccc(F)cc5)c4=O)nc3)ccnc2c1
2: COc1ccc2nccc(Oc3ccc(NC(=O)c4cn(C(C)C)c(C)c(-c5ccc(F)cc5)c4=O)nc3)c2c1
Query: Please let me know which one, 1 or 2 , has a lower measured pIC50 value. Write down the label of the entry you select.
Response: 1

I: COc1cc2nccc(Oc3ccc(NC(=O)c4cn(C5CCOCC5)cc(-c5ccc(F)cc5)c4=O)nc3)c2cc1OC
II: COc1cc2nccc(Oc3ccc(NC(=O)c4cn(CCN(C)C)cc(-c5ccc(Cl)cc5)c4=O)nc3)c2cc1OC
Query: Return label of the item with the larger pIC50. Candidates: I , II . Write down the label of the entry you select.
Response: II

I: COc1cc2nccc(Oc3ccc(NC(=O)c4cn(C(C)C)cc(-c5ccc(F)c(Cl)c5)c4=O)nc3)c2cc1OC
II: COc1cc2nccc(Oc3ccc(NC(=O)c4cn(C(C)C)cc(-c5ccc(F)cc5Cl)c4=O)nc3)c2cc1OC
Query: Please let me know which one, I or II , has a lower measured pIC50 value. Write down the label of the entry you select.
Response: I

I: COc1cc2nccc(Oc3ccc(NC(=O)c4cn(CCC(C)C)cc(-c5ccc(F)cc5)c4=O)nc3)c2cc1OC
II: COc1ccc2nccc(Oc3ccc(NC(=O)c4cn(CCN(C)C)cc(-c5ccc(F)cc5)c4=O)nc3)c2c1
III: COc1cc2nccc(Oc3ccc(NC(=O)c4cn(C(C)C)c(C)c(-c5ccc(F)cc5)c4=O)nc3)c2cc1OC
Query: Arrange these 3 compounds in increasing order of pIC50. Put the labels in the requested order and list them out.
Response: II, I, III
(II: 8.06, I: 8.38, III: 8.82)

P: CCC(CC)n1cc(C(=O)Nc2ccc(Oc3ccnc4cc(OC)c(OC)cc34)cn2)c(=O)c(-c2ccc(F)cc2F)c1
Q: COc1ccc2nccc(Oc3ccc(NC(=O)c4cn(C)cc(-c5ccc(F)cc5)c4=O)nc3)c2c1
R: COc1cc2c(Oc3ccc(NC(=O)c4cn(C(C)C)cc(-c5ccc(F)cc5)c4=O)nc3)ccnc2cc1F
Query: Arrange these 3 compounds in increasing order of pIC50. Put the labels in the requested order and list them out.
Response: Q, R, P
(Q: 6.76, R: 7.41, P: 8.21)

a: COc1cc2nccc(Oc3ccc(NC(=O)c4cn(CC5CCOCC5)cc(-c5ccc(F)cc5)c4=O)nc3)c2cc1OC
b: COc1cc2nccc(Oc3ccc(NC(=O)c4cn(C(C)C)cc(-c5ccc(F)cc5F)c4=O)nc3)c2cc1OC
c: COc1ccc(-c2cn(C(C)C)cc(C(=O)Nc3ccc(Oc4ccnc5cc(OC)c(OC)cc45)cn3)c2=O)cc1
d: COc1cc2nccc(Oc3ccc(NC(=O)c4cn(CC(=O)N(C)C)cc(-c5ccc(F)cc5)c4=O)nc3)c2cc1OC
e: CC(C)n1cc(C(=O)Nc2ccc(Oc3ccnc4cc(OC(F)(F)F)ccc34)cn2)c(=O)c(-c2ccc(F)cc2)c1
Query: Arrange these 5 compounds in increasing order of pIC50. Put the labels in the requested order and list them out.
Response: e, c, d, a, b
(e: 6.70, c: 7.08, d: 7.84, a: 8.13, b: 8.55)

P: COc1cc2nccc(Oc3ccc(NC(=O)c4cn(CC(C)C)cc(-c5ccc(F)cc5)c4=O)nc3)c2cc1OC
Q: COCCn1cc(C(=O)Nc2ccc(Oc3ccnc4cc(OC)c(OC)cc34)cn2)c(=O)c(-c2ccc(F)cc2)c1
Query: Please let me know which one, P or Q , has a lower measured pIC50 value. Write down the label of the entry you select.
Response: P
(P: 8.19, Q: 8.54)

====

# measured-target: GST-tagged recombinant human TYRO3 kinase domain (Homo sapiens)
# Construct: GST-tagged recombinant human TYRO3 kinase domain
# Sequence (Q06418 518-790 limits assumed): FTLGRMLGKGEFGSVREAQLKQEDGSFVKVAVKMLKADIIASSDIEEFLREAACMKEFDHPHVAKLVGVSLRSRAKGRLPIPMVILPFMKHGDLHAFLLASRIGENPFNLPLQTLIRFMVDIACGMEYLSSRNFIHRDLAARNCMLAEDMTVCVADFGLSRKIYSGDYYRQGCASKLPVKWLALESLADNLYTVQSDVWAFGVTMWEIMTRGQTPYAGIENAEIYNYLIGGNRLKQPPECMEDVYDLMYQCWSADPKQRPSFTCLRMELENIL
# protocol-notes: TYRO3 Enzyme Assay (LanthaScreen Eu Kinase Binding)
# measurement-context: averaged IC50; TYRO3 5 nM; 60-minute incubation at 22° C.; TR-FRET
endpoint-label: IC50 (nM)

The examples below pair each entry with its known result.
{"compound": "COc1cc2nccc(Oc3ccc(NC(=O)c4cn(C)c(C(C)C)c(-c5ccc(F)cc5)c4=O)nc3)c2cc1OC [Example 45]", "measurement-units": "nM", "quantitative-result": 91}
{"compound": "COc1cc2nccc(Oc3ccc(NC(=O)c4cn(CCN(C)C)cc(-c5ccc(Cl)cc5)c4=O)nc3)c2cc1OC [Example 42]", "measurement-units": "nM", "quantitative-result": 16}
{"compound": "COc1cc2nccc(Oc3ccc(NC(=O)c4cn(C(C)C)cc(-c5ccc(F)c(Cl)c5)c4=O)nc3)c2cc1OC [Example 21]", "measurement-units": "nM", "quantitative-result": 26}
{"compound": "COc1cc2nccc(Oc3ccc(NC(=O)c4cn(CC(=O)N(C)C)cc(-c5ccc(Cl)cc5)c4=O)nc3)c2cc1OC [Example 25]", "measurement-units": "nM", "quantitative-result": 54}
{"compound": "CC(C)n1cc(C(=O)Nc2ccc(Oc3ccnc4cc(OC(F)(F)F)ccc34)cn2)c(=O)c(-c2ccc(F)cc2)c1 [Example 50]", "measurement-units": "nM", "quantitative-result": 470}
{"compound": "CCOc1ccc2nccc(Oc3ccc(NC(=O)c4cn(C(C)C)cc(-c5ccc(F)cc5)c4=O)nc3)c2c1 [Example 51]", "measurement-units": "nM", "quantitative-result": 112}
{"compound": "COc1cc2nccc(Oc3cnc(NC(=O)c4cn(C(C)C)c(C)c(-c5ccc(F)cc5)c4=O)nc3)c2cc1OC [Example 55]", "measurement-units": "nM", "quantitative-result": 8}
{"compound": "CCn1cc(C(=O)Nc2ccc(Oc3ccnc4cc(OC)c(OC)cc34)cn2)c(=O)c(-c2ccc(F)cc2)c1 [Example 3]", "measurement-units": "nM", "quantitative-result": 5}
{"compound": "COc1cc2nccc(Oc3ccc(NC(=O)c4cn(CC(=O)N(C)C)cc(-c5ccc(F)cc5)c4=O)nc3)c2cc1OC [Example 23]", "measurement-units": "nM", "quantitative-result": 14}
{"compound": "COc1cc(-c2cn(C(C)C)cc(C(=O)Nc3ccc(Oc4ccnc5cc(OC)c(OC)cc45)cn3)c2=O)ccc1F [Example 20]", "measurement-units": "nM", "quantitative-result": 6}

I: COc1cc2nccc(Oc3ccc(NC(=O)c4cn(C(C)C)cc(-c5ccc(F)cc5)c4=O)cn3)c2cc1OC [Example 58]
II: COc1cc2nccc(Oc3ccc(NC(=O)c4cn(CCC(C)C)cc(-c5ccc(Cl)cc5)c4=O)nc3)c2cc1OC [Example 37]
Query: Please let me know which one, I or II , has a lower measured IC50 value. Write down the label of the entry you select.
Response: I
(I: 6 nM, II: 30 nM)

a: COc1cc2nccc(Oc3ccc(NC(=O)c4cn(C(C)C)cc(-c5ccc(F)cc5OC)c4=O)nc3)c2cc1OC [Example 32]
b: COc1cc2nccc(Oc3ccc(NC(=O)c4cn(CCN(C)C)cc(-c5ccc(F)cc5F)c4=O)nc3)c2cc1OC [Example 44]
Query: Return label of the item with the larger IC50. Candidates: a , b . Write down the label of the entry you select.
Response: a

====

# measured-target: human MET kinase D1228H (Homo sapiens, UniProt P08581, D1228H)
# Construct: GST-tagged recombinant human MET kinase domain
# Sequence (P08581 1078-1345 D1228H): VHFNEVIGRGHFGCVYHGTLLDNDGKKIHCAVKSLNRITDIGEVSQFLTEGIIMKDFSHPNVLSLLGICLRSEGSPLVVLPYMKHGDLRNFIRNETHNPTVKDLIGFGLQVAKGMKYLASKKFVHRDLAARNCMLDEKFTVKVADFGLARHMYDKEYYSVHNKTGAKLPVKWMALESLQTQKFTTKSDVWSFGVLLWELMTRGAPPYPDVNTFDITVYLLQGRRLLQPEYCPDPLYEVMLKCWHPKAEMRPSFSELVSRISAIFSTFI
# protocol-notes: c-Met Enzyme Assay, D1228H mutant
# measurement-context: averaged IC50; D1228H 2 nM; 60-minute incubation at 22° C.; read-out: D1228 H IC50
pIC50: −log10 of the molar value.
endpoint-label: pIC50

The examples below pair each entry with its known result.
{"molecule": "COc1cc2nccc(Oc3ccc(NC(=O)c4cn(CC(=O)N(C)C)cc(-c5ccc(Cl)cc5)c4=O)nc3)c2cc1OC [Example 25]", "pIC50": 7.65}
{"molecule": "COc1cc2nccc(Oc3ccc(NC(=O)c4cn(CC(=O)N(C)C)cc(-c5ccc(F)cc5F)c4=O)nc3)c2cc1OC [Example 13]", "pIC50": 8.36}
{"molecule": "CCC(CC)n1cc(C(=O)Nc2ccc(Oc3ccnc4cc(OC)c(OC)cc34)cn2)c(=O)c(-c2ccc(F)cc2F)c1 [Example 16]", "pIC50": 8.27}
{"molecule": "COc1cc2nccc(Oc3ccc(NC(=O)c4cn(C(C)C)cc(-c5ccc(F)cc5)c4=O)cn3)c2cc1OC [Example 58]", "pIC50": 8.46}
{"molecule": "COc1cc2nc(C)cc(Oc3ccc(NC(=O)c4cn(C(C)C)cc(-c5ccc(F)cc5)c4=O)nc3)c2cc1OC [Example 53]", "pIC50": 5.37}

a: COc1cc2c(Oc3ccc(NC(=O)c4cn(C(C)C)cc(-c5ccc(F)cc5)c4=O)nc3)ccnc2cc1F [Example 49]
b: COc1cc2nccc(Oc3ccc(NC(=O)c4cn(C(C)C)cc(-c5ccc(F)cc5F)c4=O)nc3)c2cc1OC [Example 4]
c: COc1cc2nccc(Oc3ccc(NC(=O)c4cn(CCC(C)C)cc(-c5ccc(F)cc5)c4=O)nc3)c2cc1OC [Example 34]
d: COc1cc(-c2cn(C(C)C)cc(C(=O)Nc3ccc(Oc4ccnc5cc(OC)c(OC)cc45)cn3)c2=O)ccc1F [Example 20]
e: COc1cc2nccc(Oc3ccc(NC(=O)c4cn(C(C)C)cc(-c5ccc(F)cc5)c4=O)nc3)c2cc1OC [Example 1]
Query: Arrange these 5 molecules in increasing order of pIC50. Put the labels in the requested order and list them out.
Response: a, d, c, b, e

a: CCOc1ccc2nccc(Oc3ccc(NC(=O)c4cn(C(C)C)cc(-c5ccc(F)cc5)c4=O)nc3)c2c1 [Example 51]
b: COc1cc2nccc(Oc3ccc(NC(=O)c4cn(C(C)C)cc(-c5ccc(F)cc5Cl)c4=O)nc3)c2cc1OC [Example 18]
c: COc1ccc2nccc(Oc3ccc(NC(=O)c4cn(C)cc(-c5ccc(F)cc5)c4=O)nc3)c2c1 [Example 41]
Query: Arrange these 3 molecules in increasing order of pIC50. Put the labels in the requested order and list them out.
Response: c, a, b
